Biological target: ScSla1-D1-D2
Test: SPOT peptide array binding signal intensity (averaged, normalized) (arbitrary units (background-subtracted, floor 0; scale differs between SH3 domains)); higher = stronger binding of the SH3 domain to the peptide
readout: SPOT peptide array binding signal intensity
Answer field: number only, no words.

Qu. Need SPOT peptide array binding signal intensity, item `LEFRAILFIPKRAPF`
Ans. 37.5

Qu. Please answer likewise for `NSMRPPLLIPAATTK`
Ans. 266

Qu. Please answer likewise for `VTHRLRISIPGITGR`
Ans. 159

Qu. Please answer likewise for `RTIRKLPLMSLSEYF`
Ans. 290

Qu. Please answer likewise for `FLIKFTPKFPQSIDH`
Ans. 322

Qu. Please answer likewise for `RRGPAPPPPPRASRP`
Ans. 4710

Qu. Please answer likewise for `LPMNIQPDLPPRKIM`
Ans. 192

Qu. Please answer likewise for `IHTRRPSSTSQYLIR`
Ans. 172

Qu. Please answer likewise for `APKREAPKPPANTSP`
Ans. 738

From: the supplement of paper PMC4466140
